These entries and their values trace back to patent US12129246B1.

# System Tested: human NPR1 (Homo sapiens, UniProt P16066)
# Construct: host or cells: CHO-K1
# Sequence (P16066 33-1061): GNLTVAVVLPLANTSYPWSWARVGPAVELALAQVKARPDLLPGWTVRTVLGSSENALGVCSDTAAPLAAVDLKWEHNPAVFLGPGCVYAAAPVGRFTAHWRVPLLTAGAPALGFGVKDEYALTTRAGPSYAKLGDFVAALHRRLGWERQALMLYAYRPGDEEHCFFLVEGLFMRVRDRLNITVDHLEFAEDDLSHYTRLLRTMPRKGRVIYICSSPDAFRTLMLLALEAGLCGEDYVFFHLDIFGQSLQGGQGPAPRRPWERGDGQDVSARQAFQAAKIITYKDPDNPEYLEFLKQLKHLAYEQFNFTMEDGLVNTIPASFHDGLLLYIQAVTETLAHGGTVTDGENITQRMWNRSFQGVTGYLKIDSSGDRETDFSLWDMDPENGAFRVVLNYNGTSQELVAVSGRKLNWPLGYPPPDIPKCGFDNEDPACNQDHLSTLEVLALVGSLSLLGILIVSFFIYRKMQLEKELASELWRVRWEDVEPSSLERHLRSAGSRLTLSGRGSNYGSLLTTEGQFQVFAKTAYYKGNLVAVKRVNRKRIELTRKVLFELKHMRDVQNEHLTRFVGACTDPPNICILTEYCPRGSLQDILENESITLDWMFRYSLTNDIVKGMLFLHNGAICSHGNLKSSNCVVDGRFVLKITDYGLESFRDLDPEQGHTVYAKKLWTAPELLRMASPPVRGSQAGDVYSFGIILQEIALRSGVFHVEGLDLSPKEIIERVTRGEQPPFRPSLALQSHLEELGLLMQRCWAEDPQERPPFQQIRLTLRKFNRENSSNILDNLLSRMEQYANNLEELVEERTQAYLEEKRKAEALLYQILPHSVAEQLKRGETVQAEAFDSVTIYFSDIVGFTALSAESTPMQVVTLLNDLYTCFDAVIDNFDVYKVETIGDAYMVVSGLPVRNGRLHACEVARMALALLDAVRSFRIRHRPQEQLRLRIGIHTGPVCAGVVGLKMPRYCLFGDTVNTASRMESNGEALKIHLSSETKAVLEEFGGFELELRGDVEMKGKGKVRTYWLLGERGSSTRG
# Measurement Notes: Cellular cGMP production assay, human NPR1 expressing CHO-K1 cells (CisBio HTRF)
# Assay type: cell-based
# Experimental Conditions: maximum cGMP production as percentage of the maximum cGMP produced with ANP
Give Human NPR1 Amax (% of ANP) for every item shown.

>>> reported_result("CC[C@H]([C@H]1CC[C@H](C(=O)O)CC1)N(C)c1nc2c(c(N[C@@H](CN3C4CCCC3CC4)c3ccnn3C)n1)C[C@H](c1cccc(F)c1)CC2")
"94.088 % of ANP"
>>> reported_result("CC[C@@H](Nc1nc2c(c(N[C@@H](CN3C4CCCC3CC4)c3ccccc3)n1)C[C@H](c1ccccc1)CC2)[C@H]1CC[C@H](C(=O)O)CC1")
"104.186 % of ANP"
>>> reported_result("CC[C@H]([C@H]1CC[C@H](C(=O)O)CC1)N(C)c1nc2c(c(N[C@@H](CN3C[C@H](C)C[C@@H](OC)C3)c3cnn(C)c3)n1)C[C@H](c1ccccc1)CC2")
"98.57 % of ANP"
>>> reported_result("CC[C@@H](Nc1nc2c(c(N[C@@H](CN3CCCCC3)c3cnc(C)s3)n1)C[C@H](c1ccccc1)CC2)[C@H]1CC[C@H](C(=O)O)CC1")
"89.681 % of ANP"
>>> reported_result("CC[C@H]([C@H]1CC[C@H](C(=O)O)CC1)N(C)c1nc2c(c(N[C@@H](CN3CCC[C@@](C)(O)C3)c3cnn(C)c3)n1)C[C@H](c1ccccc1)CC2")
"110.06 % of ANP"

State recorded Human NPR1 Amax (% of ANP) for all listed molecules.
1. CC[C@H]([C@H]1CC[C@H](C(=O)O)CC1)N(C)c1nc2c(c(N[C@@H](CN3CCC[C@H](C)C3)c3ccc(=O)n(C)c3)n1)C[C@H](c1cccc(F)c1)CC2
2. CC[C@H]([C@H]1CC[C@H](C(=O)O)CC1)N(C)c1nc2c(c(N[C@@H](CN3C4CCCC3CCC4)c3cnn(CC)c3)n1)C[C@H](c1ccccc1)CC2

1. 101.185 % of ANP
2. 99.678 % of ANP
